tested on: TK-10; assay: cells; assay type: cell-based; details: Homo sapiens; TK-10 (Renal Cancer)
PROPERTY LABEL: IC50 (µM)
Provide only the numeric value, understood in µM.

Input line: What value of IC50 has been reported for the following molecule? "O=c1[nH]ccc2nc(N3CCC(O)CC3)nc(Nc3cccc(C(F)(F)F)c3)c12"
Output line: 36.3

* * *

system: MOLT-4; assay: cells; type: cell-based; details: Homo sapiens; MOLT-4 (Leukemia)
PROPERTY LABEL: IC50
Write the figure, then the unit, nothing else.

Input line: For the compound "O=c1[nH]ccc2nc(N3CCC(O)CC3)nc(Nc3cccc(C(F)(F)F)c3)c12" , what IC50 is on record?
Output line: 3.63 µM

* * *

biological target: SYK (Homo sapiens); experiment: Inhibition of enzymatic kinase activity (LANCE Ulight); assay type: biochemical; parameters: Purified full-length human SYK, ZAP70, PIM1, PYK2; purchased Carna Biosciences; conditions: at 1 μM concentration; read-out: SYK percentage inhibition
Structures can show the parent of a compound that is named as a salt.
PROPERTY LABEL: inhibition at 1 µM (%)
Value expressed in %; do not type the unit.

Check out these entries, answers already filled in.
Input line: // lookup inhibition at 1 µM | system=SYK (Homo sapiens) | key= NC1CCC(Nc2nc(Nc3cccc(C(F)(F)F)c3)c3c(=O)[nH]ccc3n2)CC1 (stereo not shown)
Output line: 84

Input line: Notebook: pull reported inhibition at 1 µM for SYK (Homo sapiens), entry NC1CCN(c2nc(Nc3cccc(Br)c3)c3c(=O)[nH]ccc3n2)CC1 [Compound 84, hydrochloride]
Output line: 95.7

Input line: Request: inhibition at 1 µM, test system SYK (Homo sapiens), entry "Cn1ccc2nc(N3CCC(O)CC3)nc(Nc3cccc(C(F)(F)F)c3)c2c1=O"
Output line: 3

Input line: Hi! What's the reported inhibition at 1 µM for "O=c1[nH]ccc2nc(N3CCC(O)CC3)nc(Nc3cccc(C(F)(F)F)c3)c12" on SYK (Homo sapiens)?
Output line: 88

Input line: Lab note: need inhibition at 1 µM with SYK (Homo sapiens) for entry N[C@@H]1CCN(c2nc(Nc3cccc(C(F)(F)F)c3)c3c(=O)[nH]ccc3n2)C1 [Compound 7, hydrochloride] , please look it up.
Output line: 92.6

More entries:
Input line: # get_value(readout= inhibition at 1 µM, system= SYK (Homo sapiens)) for "CS(=O)(=O)c1ccc(Nc2nc(N3CCC(O)CC3)nc3cc[nH]c(=O)c23)cc1"
Output line: 95.1

Input line: Quick check: inhibition at 1 µM on SYK (Homo sapiens), item "N[C@@H]1CCCC[C@H]1Nc1nc(Nc2cc(C(F)(F)F)cc(C(F)(F)F)c2)c2c(=O)[nH]ccc2n1" ?
Output line: 37.7

* * *

test system: U251; assay: cells; assay type: cell-based; conditions: Homo sapiens, U-251; U251 (CNS Cancer)
PROPERTY LABEL: pIC50
Quick note: pIC50 values are minus log10 of concentrations in mol/L.

Input line: Can you share its pIC50? I mean this compound: O=c1[nH]ccc2nc(N3CCC(O)CC3)nc(Nc3cccc(C(F)(F)F)c3)c12 [Compound 6]
Output line: 4.93

* * *

system: SNB-19; experiment: cells; type: cell-based; conditions: Homo sapiens; SNB-19 (CNS Cancer)
PROPERTY LABEL: IC50 (µM)
Value expressed in µM; do not type the unit.

Input line: Entry under review: O=c1[nH]ccc2nc(N3CCC(O)CC3)nc(Nc3cccc(C(F)(F)F)c3)c12 [Compound 6] . Reported IC50?
Output line: 64.6

Where do these numbers come from? They come from patent US8404677B2.
